- Target under test: Transient receptor potential cation channel subfamily V member 1 (Rattus norvegicus, UniProt O35433)
- Sequence (O35433 whole entry): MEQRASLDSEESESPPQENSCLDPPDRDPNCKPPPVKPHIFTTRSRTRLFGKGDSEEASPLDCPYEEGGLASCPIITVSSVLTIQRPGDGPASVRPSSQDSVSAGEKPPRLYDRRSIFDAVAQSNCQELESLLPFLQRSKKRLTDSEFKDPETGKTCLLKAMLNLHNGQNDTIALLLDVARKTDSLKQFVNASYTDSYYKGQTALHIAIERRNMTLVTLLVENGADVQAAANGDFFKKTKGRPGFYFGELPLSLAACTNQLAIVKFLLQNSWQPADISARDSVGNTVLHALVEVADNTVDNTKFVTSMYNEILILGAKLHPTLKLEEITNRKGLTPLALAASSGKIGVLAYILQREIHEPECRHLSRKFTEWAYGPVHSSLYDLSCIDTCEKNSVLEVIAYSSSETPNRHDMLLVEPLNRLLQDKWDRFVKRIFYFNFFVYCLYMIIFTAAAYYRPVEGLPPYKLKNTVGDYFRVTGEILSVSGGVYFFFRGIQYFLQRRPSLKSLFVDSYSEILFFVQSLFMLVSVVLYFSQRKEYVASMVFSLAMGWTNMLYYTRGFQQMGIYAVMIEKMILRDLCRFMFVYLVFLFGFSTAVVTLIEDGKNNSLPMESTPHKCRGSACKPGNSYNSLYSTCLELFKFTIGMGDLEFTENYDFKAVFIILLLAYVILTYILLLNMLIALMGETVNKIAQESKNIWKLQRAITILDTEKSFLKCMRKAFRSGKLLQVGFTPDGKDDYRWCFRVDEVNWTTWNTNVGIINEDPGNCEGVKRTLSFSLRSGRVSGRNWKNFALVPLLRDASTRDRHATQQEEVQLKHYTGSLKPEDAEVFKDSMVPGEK
Assay endpoint: Ki (nM)
Give bare numbers, in nM.

C=C(C)[C@]12C[C@@H](C)[C@@]34O[C@](Cc5ccccc5)(O[C@@H]1[C@@H]3C(COC(=O)Cc1cc(I)c(O)c(OC)c1)=CC[C@@H]1C(=O)C(C)=C[C@H]14)O2 | 0.39

Next molecule, please.
# return recorded Ki for input "Oc1cc2c(cc1O)CN(C(=S)NCCc1ccc(Cl)cc1)CCC2"
4300

* * *

- Target under test: Transient receptor potential cation channel subfamily V member 1 (Homo sapiens, UniProt Q8NER1)
- Sequence (Q8NER1 whole entry): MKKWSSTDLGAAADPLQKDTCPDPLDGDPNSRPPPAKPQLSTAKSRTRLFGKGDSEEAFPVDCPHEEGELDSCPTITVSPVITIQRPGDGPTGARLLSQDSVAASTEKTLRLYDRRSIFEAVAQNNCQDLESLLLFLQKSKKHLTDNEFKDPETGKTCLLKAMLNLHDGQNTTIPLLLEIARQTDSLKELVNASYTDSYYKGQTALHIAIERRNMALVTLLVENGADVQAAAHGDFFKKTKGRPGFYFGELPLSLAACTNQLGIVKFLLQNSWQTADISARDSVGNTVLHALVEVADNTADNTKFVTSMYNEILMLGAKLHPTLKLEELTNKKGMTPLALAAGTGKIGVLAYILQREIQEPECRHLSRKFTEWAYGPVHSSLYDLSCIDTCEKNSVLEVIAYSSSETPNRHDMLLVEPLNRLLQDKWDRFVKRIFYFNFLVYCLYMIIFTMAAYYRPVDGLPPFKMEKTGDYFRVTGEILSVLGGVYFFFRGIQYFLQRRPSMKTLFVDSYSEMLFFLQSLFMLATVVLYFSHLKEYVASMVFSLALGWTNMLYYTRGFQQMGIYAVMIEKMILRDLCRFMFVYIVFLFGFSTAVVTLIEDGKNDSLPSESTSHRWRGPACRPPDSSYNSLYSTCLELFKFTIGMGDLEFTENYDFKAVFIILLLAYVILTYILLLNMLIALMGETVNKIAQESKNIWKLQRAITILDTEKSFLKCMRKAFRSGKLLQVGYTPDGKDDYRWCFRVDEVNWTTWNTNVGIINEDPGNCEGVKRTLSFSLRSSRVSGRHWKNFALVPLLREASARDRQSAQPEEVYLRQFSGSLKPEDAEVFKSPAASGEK
Assay endpoint: Ki (nM)
Answers are plain numbers, in nM.

# return recorded Ki for input "C=C(C)[C@]12C[C@@H](C)[C@@]34O[C@](Cc5ccccc5)(O[C@@H]1[C@@H]3C(COC(=O)Cc1cc(I)c(O)c(OC)c1)=CC[C@@H]1C(=O)C(C)=C[C@H]14)O2"
6.7
